# assay: Pharmacokinetic study (PK) after single i.v. and i.p. administration
# Type: in vivo, male CD-1 mice
# particulars: male, CD-1, mouse, in vivo, ip, 10 mg/kg
# Protocol: 2.9. Pharmacokinetic Study (PK) 30 grams (±20%) male CD-1 mice obtained from Charles River Laboratories Deutschland GmbH were used in the study. The vehicle, physiological saline, was added to give a final concentration of 1 mg/ml of the compounds. […] PK analysis was performed on pooled data (generally n=2 or 3) using the software PK solutions 2.0™ (Summit Research Service, Montrose, Colo. 81401 USA). The area under the curve AUC was calculated by the linear trapezoidal rule. […]
assay endpoint: Tmax (h)

1) N=C(N)NCCC[C@@H]1NC(=O)[C@@H]2CSSC[C@H](NC(=O)[C@H](Cc3ccc4ccccc4c3)NC(=O)[C@H](CCCNC(=N)N)NC(=O)[C@H](CCCNC(=N)N)NC(=O)[C@H]3CCCN3C(=O)CNC1=O)C(=O)N[C@@H](Cc1ccc(O)cc1)C(=O)N[C@@H](CCCNC(N)=O)C(=O)N[C@@H](CCCCN)C(=O)N1CCC[C@@H]1C(=O)N1CCC[C@H]1C(=O)N[C@@H](Cc1ccc(O)cc1)C(=O)N[C@@H](CCCNC(=N)N)C(=O)N[C@@H](CCCNC(N)=O)C(=O)N2; 2
